# Tested on: hERG channels (Homo sapiens, UniProt Q12809)
# Sequence (Q12809 whole entry): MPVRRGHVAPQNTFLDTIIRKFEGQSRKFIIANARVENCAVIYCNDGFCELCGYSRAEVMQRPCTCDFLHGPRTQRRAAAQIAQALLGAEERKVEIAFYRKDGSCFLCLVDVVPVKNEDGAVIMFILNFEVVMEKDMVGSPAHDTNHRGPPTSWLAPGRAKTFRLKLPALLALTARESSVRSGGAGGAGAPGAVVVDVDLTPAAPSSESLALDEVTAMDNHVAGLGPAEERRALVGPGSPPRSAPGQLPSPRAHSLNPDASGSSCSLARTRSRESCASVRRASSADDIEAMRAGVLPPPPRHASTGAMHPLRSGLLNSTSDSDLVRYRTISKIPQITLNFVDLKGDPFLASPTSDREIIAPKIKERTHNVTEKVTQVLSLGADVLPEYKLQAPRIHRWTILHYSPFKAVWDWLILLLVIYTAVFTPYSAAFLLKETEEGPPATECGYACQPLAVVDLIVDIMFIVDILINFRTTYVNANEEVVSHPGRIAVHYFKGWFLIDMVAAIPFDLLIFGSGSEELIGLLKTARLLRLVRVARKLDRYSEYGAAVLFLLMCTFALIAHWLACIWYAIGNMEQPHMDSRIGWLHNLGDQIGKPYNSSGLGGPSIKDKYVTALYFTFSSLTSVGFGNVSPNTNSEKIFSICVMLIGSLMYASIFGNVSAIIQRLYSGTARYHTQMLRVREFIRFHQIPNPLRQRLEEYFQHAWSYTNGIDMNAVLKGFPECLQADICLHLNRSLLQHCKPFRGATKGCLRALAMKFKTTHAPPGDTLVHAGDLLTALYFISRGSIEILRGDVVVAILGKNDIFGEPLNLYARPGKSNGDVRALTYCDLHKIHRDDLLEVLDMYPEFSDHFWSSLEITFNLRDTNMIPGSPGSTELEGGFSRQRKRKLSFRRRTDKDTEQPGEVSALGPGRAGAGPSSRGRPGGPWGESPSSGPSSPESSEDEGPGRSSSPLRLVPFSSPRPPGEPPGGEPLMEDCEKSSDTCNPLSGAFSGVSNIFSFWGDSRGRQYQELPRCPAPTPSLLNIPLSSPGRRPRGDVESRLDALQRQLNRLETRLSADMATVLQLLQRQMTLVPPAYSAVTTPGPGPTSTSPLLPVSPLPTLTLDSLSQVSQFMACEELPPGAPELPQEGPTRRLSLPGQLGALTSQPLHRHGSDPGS
# Assay details: hERG patch clamp on clone hERG channels in mammalian cells
# Assay context: test article 1 μm, cisapride positive control, read-out: Experimental hERG Activity
pIC50: −log10 of the molar value.
Quantity: pIC50

Completed entries (count: 3):
[[record]]
smiles_structure = "Cc1ccc(C)c(OCCCCCCN(CCO)CCO)c1"
quantity = "pIC50"
observed_measurement = "> 5.70"

[[record]]
smiles_structure = "Cc1ccc(C)c(OCCCCCCCN2CCOCC2)c1"
quantity = "pIC50"
observed_measurement = "> 5.70"

[[record]]
smiles_structure = "OCCN(CCO)CCCCCCCCOc1ccccc1O"
quantity = "pIC50"
observed_measurement = "5.30 to 5.70"


Now turn to the next compound.
q: What does the record list as pIC50 for "Cc1ccc(C)c(OCCCCCCCN(CCO)CCO)c1" ?
a: > 5.70

Source of measurements: patent US9458089B2
